assay: Total plasma homocysteine after osmotic pump implantation, mice (HPLC); type: in vivo, WT and GluN2A-KO mice; conditions: mouse, subcutaneous, 200 mM solution (200 μl osmotic pump, flow rate 1 μl/hr), GluN2A-KO mice, osmotic pump with 200 mM L-homocysteine, day 5
property: concentration at 5 day (µM)
Your answer should be a plain number; it is taken to be in µM.

Q. Supply concentration at 5 day value. Item: N[C@@H](CCS)C(=O)O
A. 15.9

---

test system: PGE2; experiment: PGE2 release from rat neuronal cultures (enzyme immunoassay / ELISA of culture media); assay type: cell-based; settings: rat neurons, L-homocysteine 50 μM four hours, with DL-AP5 200 μM, MK801 10 μM, NVP-AAM077 30 nM, Ro 25-6981 1 μM, PD98059 15 μM, SB203580 5 μM, Bengamide B 500 nM or CAY10404 100 nM
property: effect on homocysteine-induced PGE2 release

C[C@]12N[C@H](Cc3ccccc31)c1ccccc12; significantly reduced
CS(=O)(=O)c1ccc(-c2noc(C(F)(F)F)c2-c2ccccc2)cc1; significantly reduced
C[C@H](NC(c1cccc2[nH]c(=O)c(=O)[nH]c12)P(=O)(O)O)c1ccc(Br)cc1 (stereo partly shown); significantly reduced

---

experiment: Total plasma homocysteine after osmotic pump implantation, mice (HPLC); type: in vivo, WT and GluN2A-KO mice; settings: mouse, subcutaneous, 200 mM solution (200 μl osmotic pump, flow rate 1 μl/hr), WT mice, osmotic pump with 200 mM L-homocysteine, day 5
property: concentration at 5 day (µM)
// units = µM; emit number, no label

Q. Return value of concentration at 5 day for input N[C@@H](CCS)C(=O)O , no commentary.
A. 16.7

---

experiment: Total plasma homocysteine after osmotic pump implantation, mice (HPLC); format: in vivo, WT and GluN2A-KO mice; conditions: mouse, subcutaneous, 200 mM solution (200 μl osmotic pump, flow rate 1 μl/hr), WT mice, osmotic pump with 200 mM L-homocysteine, day 3, day 0 6.6±0.73 μM
property: concentration at 3 day (µM)
Write down the numeric answer in µM and omit the unit.

Q. Query concentration at 3 day for N[C@@H](CCS)C(=O)O [L-homocysteine]
A. 19

---

assay: Total plasma homocysteine after osmotic pump implantation, rats (HPLC); assay type: in vivo; details: male, Wistar, rat, sc, 200 mM solution (2 ml osmotic pump, flow rate 10 μl/hr), subcutaneous osmotic pump with 200 mM L-homocysteine, day 7, read-out: total plasma homocysteine level
property: concentration at 7 day (µM)
# number only, unit µM dropped from output

Q. Tell us which concentration at 7 day value is on record for N[C@@H](CCS)C(=O)O
A. 20.5

Data provenance: patent US11541065B2
